Source of measurements: patent US20250296992A1

Biological target: T1, human SLITRK6 extracellular domain linked to his tag (human, UniProt Q9H5Y7 27-608)
T1 construct: extracellular domain; also called huSLITRK6; Hu SLITRK6; not shown: his tag
Experiment: BLI; antigen-his on anti-his tips, antibody or ADC as analyte; 1:1 fit
Result Type: Kd (nM)
Reply numerically in nM, unit not repeated.

Ask | Look up and report measured Kd for this entry: hu1H2-03 with a LALA mutation (hu1H2-03-LALA) (antibody, V domains shown) VH: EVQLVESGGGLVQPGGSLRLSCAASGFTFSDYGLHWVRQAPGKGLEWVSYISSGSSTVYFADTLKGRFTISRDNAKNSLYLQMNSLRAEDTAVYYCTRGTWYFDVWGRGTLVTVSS VL: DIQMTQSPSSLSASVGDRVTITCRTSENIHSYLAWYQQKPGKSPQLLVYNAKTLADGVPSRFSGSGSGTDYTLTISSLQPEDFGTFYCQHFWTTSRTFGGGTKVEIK
Reply | 0.14
